test: NCI Yeast Anticancer Drug Screen. Data for the mlh1 rad18 strain (AID 175); conditions: S. cerevisiae mlh1 rad18 strain growth inhibition; at 50.0 µM; stronger effect = higher value
The panel holds about 79,000 compounds, 15% with a hit somewhere; the sample as a whole holds those more often.
MEASURED PROPERTY: growth inhibition (%)

INSERT INTO results (molecule, measured_property, observed_value) VALUES
  ('CCCc1cc2c(cc1CSc1ccccc1C(=O)O)OCO2', 'growth inhibition', -12.4),
  ('C/C=C/C(=O)OCCC#N', 'growth inhibition', -8.85),
  ('N#CC(CCc1ccc([N+](=O)[O-])cc1)(CCc1ccc([N+](=O)[O-])cc1)C(N)=O', 'growth inhibition', 49.2),
  ('C=C1C(=O)[C@@]23CC1C(O)[C@@H](OC(C)=O)[C@@H]2C1(C)C(OC(C)=O)C[C@@H](OC(C)=O)C(C)(C)[C@@H]1C[C@H]3OC(C)=O (some centres undefined)', 'growth inhibition', 0.15),
  ('OC(c1ccncc1)(c1ccc(Cl)cc1)c1cccs1 (centres undefined)', 'growth inhibition', 7.7),
  ('CC(=O)N1CCN(C=S)CC1', 'growth inhibition', -15.5),
  ('Cc1nc2cnc(N)nc2nc1C', 'growth inhibition', 0.75),
  ('Cc1ccc2c(c1)SN(CN1C(=O)c3ccccc3C1=O)N2', 'growth inhibition', -28.9),
  ('COc1ccc(NC(=S)NN=C(C)c2cccc(C(C)=NNC(=S)Nc3ccc(OC)cc3)n2)cc1', 'growth inhibition', 1.95),
  ('C[C@@H]1C(N2CCCC2)=CC(=O)OC1c1ccccc1 (some centres undefined)', 'growth inhibition', 1.95),
  ('Cn1c2c(c3ccccc31)CCCC2', 'growth inhibition', 5.35),
  ('CCCN(CCC)C(=O)c1ccc(C(C)C)cc1', 'growth inhibition', 9.7),
  ('CC(=O)c1cccc(C(C)=O)n1', 'growth inhibition', 9.6),
  ('O=C(OC1CCCC1)C1(O)CCCCC1', 'growth inhibition', -16.2),
  ('c1ccc2c(c1)-c1ccccc1C2N1CCCC1', 'growth inhibition', -7.9),
  ('COc1cc(C(CC(=O)O)CC(=O)O)cc(OC)c1OC', 'growth inhibition', 12.6),
  ('CCCCCCCCCCCCCCCCOc1cccc(/C(=N/NS(C)(=O)=O)N2CCCCC2)c1', 'growth inhibition', -5.5),
  ('CCOC(=O)C(Cc1ccccc1)Nc1c(Cl)c(=O)oc2ccc(C)cc12 (centres undefined)', 'growth inhibition', 19.6),
  ('O=c1c(-c2ccc3c(c2)OCO3)coc2cc(O)ccc12', 'growth inhibition', 23.1);
